- assay_target: UniProt:Q9H0J9
- Sequence (Q9H0J9 whole entry): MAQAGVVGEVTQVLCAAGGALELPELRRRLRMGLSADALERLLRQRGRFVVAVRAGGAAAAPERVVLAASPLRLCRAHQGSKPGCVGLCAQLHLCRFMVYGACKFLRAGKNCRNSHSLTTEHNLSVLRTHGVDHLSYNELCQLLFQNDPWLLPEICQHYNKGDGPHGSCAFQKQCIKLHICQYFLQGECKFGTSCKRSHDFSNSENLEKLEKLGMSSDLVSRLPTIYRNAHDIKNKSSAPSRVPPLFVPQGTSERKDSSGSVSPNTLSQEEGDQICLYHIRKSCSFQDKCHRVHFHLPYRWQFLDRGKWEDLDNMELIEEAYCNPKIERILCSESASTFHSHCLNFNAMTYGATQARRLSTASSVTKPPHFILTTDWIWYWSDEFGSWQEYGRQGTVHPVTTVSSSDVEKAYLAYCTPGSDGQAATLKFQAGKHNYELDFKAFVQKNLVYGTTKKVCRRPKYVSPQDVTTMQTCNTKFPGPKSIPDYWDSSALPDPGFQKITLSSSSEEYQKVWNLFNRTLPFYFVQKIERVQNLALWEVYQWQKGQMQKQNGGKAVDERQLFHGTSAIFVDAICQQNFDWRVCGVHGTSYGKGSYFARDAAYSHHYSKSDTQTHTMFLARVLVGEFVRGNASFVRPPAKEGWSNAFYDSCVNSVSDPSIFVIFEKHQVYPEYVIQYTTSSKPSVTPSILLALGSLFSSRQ
- experiment_notes: Inhibition of PARP12 (unknown origin) measured after 1 hr incubation by microplate reader assay
property: IC50 (nM)
The response must be a number in nM with no trailing unit.

Task item: # lookup: IC50 of `C[C@@H](C(=O)N1CCN(c2ncc(C(F)(F)F)cn2)CC1)n1cc2cccc(C(N)=O)c2n1`
Reply: 664

Values compiled from ChEMBL document CHEMBL5537136.
